# Test system: HeLa
# testDescription: Primary qHTS to identify gynecologic anti-cancer compounds using libraries of approved drugs and bioactive compounds (AID 1345084); further: nearly all actives have a fitted effect of over 55% in size
# assayConditions: Gynecologic cancer cell panel viability, ATPlite luminescence, 48 h; series mostly up to 57.5 µM
Results filed as inconclusive are left out. Activity calls are given as the source filed them. The call rests on the fitted dose curve; in most records, active means well fitted cell-killing curve with a large enough effect; inconclusive means small, poorly fitted or top-dose-only effect, or effect the other way; inactive means flat fitted curve, though single readings scatter.
Return exactly one item of Y = active, N = inactive

Reference set (5 entries):
>>> classname("OC[C@H]1O[C@@H](O[C@H]2[C@H](OCCc3ccccc3)O[C@H](CO)[C@@H](O)[C@@H]2O)[C@H](O)[C@@H](O)[C@@H]1O")
"N"
>>> classname("CC(=O)CC1CCC(C(C)C(=O)OCC(O)CO)O1 (configuration not stated)")
"N"
>>> classname("CC(C)c1nc(-c2ccc(NC(=O)Nc3cccc(C(F)(F)F)c3)c3ccccc23)c2c(N)nccn12")
"Y"
>>> classname("COc1cc(/C=C/CO)cc(OC)c1O[C@@H]1O[C@H](CO[C@@H]2O[C@H](CO)[C@@H](O)[C@H](O)[C@H]2O)[C@@H](O)[C@H](O)[C@H]1O")
"N"
>>> classname("OC[C@H]1O[C@@H](O[C@H]2[C@H](OCc3ccccc3)O[C@H](CO[C@@H]3OC[C@@H](O)[C@H](O)[C@H]3O)[C@@H](O)[C@@H]2O)[C@H](O)[C@@H](O)[C@@H]1O")
"N"

For CC(=O)OC1C(O)C2C(C)C3=CC(=O)OC3(O)CC2C2(C)CCCC(C)(CO)C12 (configuration not stated) , what call appears in the results of this test?
N

Tell me the recorded outcome of this test for CC1=C(C(=O)O)/C(=C\CO[C@@H]2O[C@H](CO)[C@@H](O)[C@H](O)[C@H]2O)C(OC(=O)/C=C\c2ccc(O)cc2)C1 (some centres not stated) .
N
